experiment: Viability qHTS for spleen associated tyrosine kinase inhibitor (SYKi) drug resistant MV4-11 cells (AID 1963824); settings: SYKi-resistant MV4-11 viability, CellTiter-Glo, 72 h; series mostly up to 45 µM; further: nearly all actives have a fitted effect of over 35% in size; further: potency means the concentration at half of the fitted maximal effect
Inconclusive results are not listed. The source made the active and inactive calls. The call rests on the fitted dose curve; in most records, active means well fitted cell-killing curve with a large enough effect; inconclusive means small, poorly fitted or top-dose-only effect, or effect the other way; inactive means no such curve, though single readings can be large or run the other way.
MEASURED_PARAMETER: Potency

MOLECULE	MEASURED_PARAMETER	VALUE
Cc1ccccc1NC(=O)Nc1ccc(CC(=O)N(C)[C@@H](CC(C)C)C(=O)NCC[C@H](NC(=O)[C@@H]2CCCN2S(=O)(=O)c2cc(Cl)cc(Cl)c2)C(=O)O)cc1	Potency	inactive
C=C[C@@](C)(O)CC/C=C(\C)C(=O)O[C@@H]1[C@@H]2O[C@]2(C)[C@H]2[C@H](O[C@@H]3O[C@H](CO)[C@@H](O)[C@H](O)[C@H]3O)OC=C[C@@]12O	Potency	inactive
CC(C)C[C@H](NC(=O)CNC(=O)OCc1ccccc1)C(=O)N[C@@H](Cc1ccccc1)C(=O)CCl	Potency	8.2 µM (active)
COc1cc(C(C)C)c(Oc2cnc(NC(CO)CO)nc2N)cc1I	Potency	14.8 µM (active)
C=C1CC2OC(=O)C(=C)C2C(OC(=O)/C(C)=C\C)CC2(C)OC1=CC2=O (configuration not stated)	Potency	0.453 µM (active)
CN1[C@@H]2CC[C@H]1CC(OC(=O)C(CO)c1ccccc1)C2 (some centres not stated)	Potency	inactive

Quick one: Potency for Cc1ccc2c(=O)c3cccc(CC(=O)O)c3oc2c1C ? 0.934 µM (active)

// lookup Potency for COc1ccc(C(=O)N2CCN(CC(=O)N3CCOCC3)CC2)cc1 inactive

// lookup Potency for CC1CCC2(C(=O)OC3OC(CO)C(O)C(O)C3O)CCC3(C(=O)O)C(=CCC4C5(C)CCC(OC6OC(C)C(O)C(O)C6O)C(C)(C)C5CCC43C)C2C1C (configuration not stated) inactive

Item under review: NC(=O)NS(=O)(=O)c1ccc(Cl)cc1 . Reported Potency? inactive

Param item = CCOc1cc(N2CCC(O)CC2)ccc1Nc1ncc2c(n1)N(C)c1ccccc1C(=O)N2C ; retrieve measured Potency. 1.03 µM (active)

For the molecule shown here, C[C@@H]1Cc2c([nH]c3ccccc23)[C@@H](c2c(F)cc(/C=C/C(=O)O)cc2F)N1CC(C)(C)F , give the reported Potency. 20.9 µM (active)

Please report the recorded Potency for CCCCCCCC(=O)OCC(COC(=O)CCCCCCC)OC(=O)CCCCCCC . inactive

Recorded Potency of C=C1[C@@H]2CC[C@@]3(C)[C@H](c4ccoc4)OC(=O)C[C@]13O[C@H]1CC(=O)C(C)(C)[C@H](C(O)C(=O)OC)[C@]12C (some centres not stated) , please. inactive

====

assay: Quantitative highthroughput screen to assess conditional lethalithy of P12 Ichikawa cells grown in RPMI1640 with dialyzed fetal bovine serum (RPMI+ds) (AID 1963880); settings: ATP luminescence, 48 h; P12-Ichikawa viability; series mostly up to 45.8 µM; further: nearly all actives have a fitted effect of over 35% in size; further: potency means the concentration at half of the fitted maximal effect
Results filed as inconclusive are left out. Active and inactive are the calls of the source. Calls come from the whole dose curve; as a rule, active = well fitted cell-killing curve with a large enough effect; inconclusive = small, poorly fitted or top-dose-only effect; inactive = flat fitted curve, though single readings scatter. Bridge positions count the residues as written; N and C are the ends. Square brackets hold non-standard residues; d marks the D form. Peptide text beside a SMILES is read from it. * marks the point of attachment. ξ: configuration not given here. Octanoyl(6-Me) = CCC(C)CCCCC(=O)*; ξThr(3R) = C[C@@H](O)C(N)C(=O)O; dDab = NCC[C@@H](N)C(=O)O; Dab = NCC[C@H](N)C(=O)O
MEASURED_PARAMETER: Potency

COMPOUND	MEASURED_PARAMETER	VALUE
CN(C)CC[C@H](CSc1ccccc1)Nc1ccc(S(=O)(=O)NC(=O)c2ccc(N3CCN(Cc4ccccc4-c4ccc(Cl)cc4)CC3)cc2)cc1[N+](=O)[O-]	Potency	2.35 µM (active)
O=C1NCCc2[nH]c(-c3ccncc3)cc21	Potency	14.8 µM (active)
CC(=O)OCC(=O)[C@@]1(O)CC[C@H]2[C@@H]3CCC4=CC(=O)CC[C@]4(C)[C@@H]3C(=O)C[C@@]21C	Potency	inactive
C[C@@H]1CN(CC(=O)N2CC(C)(C)c3ncc(Cc4ccc(F)cc4)cc32)[C@@H](CN2CCOC[C@H]2C)CN1	Potency	inactive
COc1cccc2nc(-c3cccs3)nc(NN3C(=O)C=C(C)C3=O)c12	Potency	2.96 µM (active)
CN(C)CCC=C1c2ccccc2C=Cc2ccccc21	Potency	inactive

Form field: reported Potency of Clc1cccc(-n2nnnc2NCc2ccccc2Oc2ccccn2)c1Cl inactive

For the compound shown here, O=c1oc2c(O)c(O)cc3c(=O)oc4c(O)c(O)cc1c4c23 , give the reported Potency. inactive

For the compound shown here, Cn1cnc([N+](=O)[O-])c1Sc1ncnc2nc[nH]c12 , give the reported Potency. 5.9 µM (active)

Potency lookup needed for CCC(C)CCCCC(=O)N[C@@H](CCN)C(=O)NC(C(=O)N[C@H](CCN)C(=O)N[C@@H]1CCNC(=O)C([C@@H](C)O)NC(=O)[C@@H](CCN)NC(=O)[C@@H](CCN)NC(=O)[C@@H](CC(C)C)NC(=O)[C@H](Cc2ccccc2)NC(=O)[C@H](CCN)NC1=O)[C@@H](C)O (stereo partly drawn) ({Octanoyl(6-Me)}-[Dab][ξThr(3R)][dDab][dDab][Dab]F[dL][dDab][dDab][ξThr(3R)]; lactam 4-C) , thanks. inactive

Please look up its Potency: COc1cc2ncn(-c3cc(OCc4ccccc4S(C)(=O)=O)c(C#N)s3)c2cc1OC inactive

Would you mind telling me what Potency value was observed for N#Cc1ccc(C(c2ccc(C#N)cc2)n2cncn2)cc1 ? inactive

Quick one: Potency for CN1CC(=O)NC1=NC(=O)Nc1cccc(Cl)c1 ? inactive

# get_value(readout='Potency', item= N[C@@H](Cc1c[nH]c2ccc(O)cc12)C(=O)O ) inactive

What value of Potency has been reported for the following compound? CC=CC1=C(C(=O)O)N2C(=O)[C@H](NC(=O)[C@H](N)c3ccc(O)cc3)[C@@H]2SC1 13.2 µM (active)

Using the record for CC(C)CC(=O)Nc1n[nH]c2c1CN(C(=O)C1CCN(C)CC1)C2(C)C , report its Potency. 4.69 µM (active)

Recorded Potency for CN(C)CCCNC(=O)c1ccc(-c2cc(O)c3ncccc3c2)cc1 , please? inactive

Please give the measured Potency for this compound: Cc1cc(Nc2ncnc3ccc(-c4ccc(CNCCS(C)(=O)=O)o4)cc23)ccc1Oc1ccn2ncnc2c1 0.743 µM (active)

Could you share which Potency value was measured for O=S(=O)(N=Cc1c(O)ccc2ccccc12)c1cccs1 ? inactive

I have this compound here, COc1ccc(-c2coc3cc(O)cc(O)c3c2=O)cc1 , and I need its recorded Potency. inactive

Please give the measured Potency for this compound: CC(=O)CC(c1ccccc1)c1c(O)c2ccccc2oc1=O (stereo not drawn) inactive

# query: Potency of entry CNC(=O)c1ccc(Nc2ncc(C(F)(F)F)c(NCc3nccnc3N(C)S(C)(=O)=O)n2)cc1 inactive

Which Potency value belongs to CCOc1ccccc1OCCNC(C)Cc1ccc(OC)c(S(N)(=O)=O)c1 (stereo not drawn) ? inactive
